From: PubChem BioAssay (NCI)

- System: MALME-3M melanoma
- Experiment: NCI tumour cell line growth inhibition, 48 h
Reported property: GI50

Compound	Tested on	Recorded measurement
Cc1nc2sc(C(=O)Nc3cccc(Br)c3C)c(N)c2cc1C(O)c1ccccc1 (stereo not given)	MALME-3M melanoma	100 nM
O=C(Nc1ccncc1)C(=O)c1cn(S(=O)(=O)c2cccc(Cl)c2)c2ccccc12	MALME-3M melanoma	18700 nM
CCOc1cc(-c2nncn2C)ccc1Nc1ncc2cc(C)nc(NCC(C)(C)C)c2n1	MALME-3M melanoma	> 100000 nM
CCN1CCN(c2nc(C)cc(NCc3cc(Nc4ccnc5cc(Cl)ccc45)ccc3F)n2)CC1	MALME-3M melanoma	1780 nM
COC(=O)C1C(C(=O)O)C2(c3ccccc3)C(=O)C1(c1ccccc1)C(c1ccccc1)=C2c1ccccc1 (stereo not given)	MALME-3M melanoma	26800 nM

Lookup: Fill in: GI50 of C#C[C@@]1(O)[C@@H](CO)O[C@@H](n2cc(Br)c3c(Cl)ccnc32)[C@@H]1O is ___
Found: 32300 nM

Lookup: Fill in: GI50 of Cc1ccc(C[As+](c2ccccc2)(c2ccccc2)c2ccccc2)cc1 is ___
Found: 297 nM

Lookup: Fill in: GI50 of O=C(/C=C/c1ccccc1)c1cccc2ccccc12 is ___
Found: 6120 nM

Lookup: Fill in: GI50 of COc1ccc(OC)c(Nc2nc3nonc3nc2Nc2cccc(Br)c2)c1 is ___
Found: 471 nM

Lookup: Fill in: GI50 of COc1cccc2c1C(=O)c1c(O)c3c(c(O)c1C2=O)C[C@@](O)(/C(CO)=N/NC(=O)CCCCCN1C(=O)C=CC1=O)C[C@@H]3O[C@H]1C[C@H](N)[C@H](O)[C@H](C)O1 is ___
Found: 395 nM

====

- Test system: M14 melanoma
- Experiment: NCI tumour cell line growth inhibition, 48 h
Catalogue of molecules with associated TGI

Would you please look over these solved cases?
>>> print(df.to_string())
                                   molecule  reported_property  recorded_measurement
0                         O=Cc1ccc2ccocc1-2                TGI              > 100 µM
1     COCn1cc(C2=C(C)C(=O)C(C)=C(C)C2=O)cn1                TGI              > 100 µM
2  CN(C)c1ccc(/C=C(\C#N)c2cc3ccccc3[nH]2)cc1                TGI              > 100 µM

Lookup: Fill in: TGI of Cn1c(=O)c2ccccc2[n+]2c(-c3cccc([N+](=O)[O-])c3)csc12 is ___
Found: > 100 µM

Lookup: Fill in: TGI of Cc1cccc(C)c1NC(=O)CCC(=O)NC(N)=NC#N is ___
Found: > 100 µM

Lookup: Fill in: TGI of CC(C)(C)[Si](C)(C)OCC1OC(n2cnc3c(=O)[nH]cnc32)CC1O (configuration not stated) is ___
Found: > 100 µM

Lookup: Fill in: TGI of COc1cc(C(=O)/C=C/c2cc(-c3ccc4c(c3)OCO4)n[nH]2)cc(OC)c1OC is ___
Found: 9.2 µM

Lookup: Fill in: TGI of CC1(C)c2ccccc2N2C(c3ccccc3)=NOC21C (configuration not stated) is ___
Found: > 100 µM
